Tested on: Thromboxane-A synthase (Oryctolagus cuniculus)
TEST DESCRIPTION: Tested for inhibition of thromboxane A2 (TXA2) production in rabbit by in vitro assay at 1 uM
# inhibition per entry

[
  {
    "STRUCTURE SMILES STRING": "O=c1c2ccccc2c(Cc2cccs2)nn1CCn1ccnc1",
    "inhibition [%]": 29
  },
  {
    "STRUCTURE SMILES STRING": "CC(C)c1ccc(-c2nn(CCn3ccnc3)c(=O)c3ccccc23)cc1",
    "inhibition [%]": 64
  },
  {
    "STRUCTURE SMILES STRING": "CCc1ccc(-c2nn(CCn3ccnc3)c(=O)c3ccccc23)s1",
    "inhibition [%]": 67
  },
  {
    "STRUCTURE SMILES STRING": "O=c1c2ccccc2c(C2CCCCC2)nn1CCn1ccnc1",
    "inhibition [%]": 32
  },
  {
    "STRUCTURE SMILES STRING": "Cc1ccc(-c2nn(CCn3ccnc3)c(=O)c3ccccc23)cc1",
    "inhibition [%]": 76
  },
  {
    "STRUCTURE SMILES STRING": "O=C(O)c1ccc(-c2nn(CCn3ccnc3)c(=O)c3ccccc23)cc1",
    "inhibition [%]": 24
  },
  {
    "STRUCTURE SMILES STRING": "CCOC(=O)c1ccccc1-c1nn(CCn2ccnc2)c(=O)c2ccccc12",
    "inhibition [%]": 64
  },
  {
    "STRUCTURE SMILES STRING": "O=c1c2ccccc2c(Cc2ccc(Cl)cc2)nn1CCn1ccnc1",
    "inhibition [%]": 49
  },
  {
    "STRUCTURE SMILES STRING": "O=c1c2ccccc2c(-c2ccc(C(F)(F)F)cc2)nn1CCn1ccnc1",
    "inhibition [%]": 40
  },
  {
    "STRUCTURE SMILES STRING": "CSc1ccc(-c2nn(CCn3ccnc3)c(=O)c3ccccc23)cc1",
    "inhibition [%]": 83
  },
  {
    "STRUCTURE SMILES STRING": "CCOC(=O)c1ccc(-c2nn(CCn3ccnc3)c(=O)c3ccccc23)cc1",
    "inhibition [%]": 60
  },
  {
    "STRUCTURE SMILES STRING": "CCOC(=O)c1ccc(-c2nn(CCn3ccnc3)c(=O)c3ccccc23)s1",
    "inhibition [%]": 62
  },
  {
    "STRUCTURE SMILES STRING": "O=c1c2ccccc2c(C2CCCC2)nn1CCn1ccnc1",
    "inhibition [%]": 38
  },
  {
    "STRUCTURE SMILES STRING": "COc1ccc(-c2nn(CCn3ccnc3)c(=O)c3ccccc23)cc1F",
    "inhibition [%]": 63
  },
  {
    "STRUCTURE SMILES STRING": "O=c1c2ccccc2c(-c2ccco2)nn1CCn1ccnc1",
    "inhibition [%]": 27
  },
  {
    "STRUCTURE SMILES STRING": "COc1ccc(-c2nn(CCn3ccnc3)c(=O)c3ccccc23)cc1",
    "inhibition [%]": 74
  },
  {
    "STRUCTURE SMILES STRING": "O=C(O)c1ccccc1-c1nn(CCn2ccnc2)c(=O)c2ccccc12",
    "inhibition [%]": 14
  },
  {
    "STRUCTURE SMILES STRING": "CC(=O)c1ccc(-c2nn(CCn3ccnc3)c(=O)c3ccccc23)s1",
    "inhibition [%]": 80
  },
  {
    "STRUCTURE SMILES STRING": "O=c1c2ccccc2c(-c2ccc(Cl)cc2)nn1CCn1ccnc1",
    "inhibition [%]": 63
  },
  {
    "STRUCTURE SMILES STRING": "CC(C)Cc1nn(CCn2ccnc2)c(=O)c2ccccc12",
    "inhibition [%]": 14
  },
  {
    "STRUCTURE SMILES STRING": "O=c1c2ccccc2c(Cc2ccccc2)nn1CCn1ccnc1",
    "inhibition [%]": 45
  },
  {
    "STRUCTURE SMILES STRING": "O=c1c2ccccc2c(-c2cccc(C(F)(F)F)c2)nn1CCn1ccnc1",
    "inhibition [%]": 49
  },
  {
    "STRUCTURE SMILES STRING": "O=c1c2ccccc2c(-c2ccncc2)nn1CCn1ccnc1",
    "inhibition [%]": 27
  },
  {
    "STRUCTURE SMILES STRING": "O=c1c2ccccc2c(-c2ccccc2)nn1CCCn1ccnc1",
    "inhibition [%]": 57
  },
  {
    "STRUCTURE SMILES STRING": "O=C(O)c1cccc(-c2nn(CCn3ccnc3)c(=O)c3ccccc23)c1",
    "inhibition [%]": 10
  },
  {
    "STRUCTURE SMILES STRING": "O=c1c2ccccc2c(-c2cccs2)nn1CCn1ccnc1",
    "inhibition [%]": 22
  },
  {
    "STRUCTURE SMILES STRING": "CCc1ccsc1-c1nn(CCn2ccnc2)c(=O)c2ccccc12",
    "inhibition [%]": 68
  },
  {
    "STRUCTURE SMILES STRING": "CCc1ccc(-c2nn(CCn3ccnc3)c(=O)c3ccccc23)cc1",
    "inhibition [%]": 79
  },
  {
    "STRUCTURE SMILES STRING": "O=c1c2ccccc2c(-c2ccccn2)nn1CCn1ccnc1",
    "inhibition [%]": 20
  },
  {
    "STRUCTURE SMILES STRING": "COc1ccc(-c2nn(CCn3ccnc3)c(=O)c3ccccc23)s1",
    "inhibition [%]": 88
  },
  {
    "STRUCTURE SMILES STRING": "Cc1ccc(-c2nn(CCn3ccnc3)c(=O)c3ccccc23)s1",
    "inhibition [%]": 53
  }
]
